ASSAY_NOTES: Adsorption/precipitation of SA or AEA in 10 wt % aqueous fly ash or cement slurries at pH 12.5
Assay type: physicochemical
TEST_CONDITIONS: 10 wt % fly ash M2 (LOI 5.34%) slurry, initial SA 3 mM, Air 30/Air 40 0.105 wt %
READOUT: Adsorption (wt % Adsorbed)
Answer with the figure and its unit, nothing else.

Specify reported Adsorption (wt % Adsorbed) for the molecule shown: O=C([O-])c1cccc2ccccc12.[Na+] [NA, 1-Naphthoic acid sodium salt]
9 wt %

New cases:
Specify reported Adsorption (wt % Adsorbed) for the molecule shown: O=S(=O)([O-])c1ccc2ccccc2c1.[Na+] [NS, Sodium 2-Naphthalene sulfonate]
8 wt %

Specify reported Adsorption (wt % Adsorbed) for the molecule shown: OCCOc1ccccc1 [EGPE, Ethylene glycol phenyl ether]
14 wt %

Specify reported Adsorption (wt % Adsorbed) for the molecule shown: NCc1ccccc1 [BA, Benzylamine]
23 wt %

* * *

Let's look at some compounds and their measured Precipitation (wt % precipitated).
ASSAY_NOTES: Precipitation in slurry extract or leachate
Format: physicochemical
TEST_CONDITIONS: solution extracted from 10 wt % fly ash M3 (LOI 11.33%) slurry, pH 12.5; entries in parentheses
Answer with the figure and its unit, nothing else.

Study these solved cases before continuing.
Specify reported Precipitation (wt % precipitated) for the compound shown: NCc1ccccc1
13 wt %

Specify reported Precipitation (wt % precipitated) for the compound shown: O=S(=O)([O-])c1ccc2ccccc2c1.[Na+] [NS, Sodium 2-Naphthalene sulfonate]
0 wt %

Specify reported Precipitation (wt % precipitated) for the compound shown: O=C([O-])c1cccc2ccccc12.[Na+] [NA, 1-Naphthoic acid sodium salt]
0 wt %

New cases:
Specify reported Precipitation (wt % precipitated) for the compound shown: OCCOc1ccccc1
0 wt %

* * *

ASSAY_NOTES: Adsorption/precipitation of SA or AEA in 10 wt % aqueous fly ash or cement slurries at pH 12.5
Type: physicochemical
TEST_CONDITIONS: 10 wt % fly ash C1, class C (LOI 1.62%) slurry, initial SA 3 mM, Air 30/Air 40 0.105 wt %
READOUT: Adsorption (wt % Adsorbed) (wt %)
Please reply with the bare figure in wt % and do not write the unit itself.

Specify reported Adsorption (wt % Adsorbed) for the molecule shown: NCc1ccccc1 [BA, Benzylamine]
25

Specify reported Adsorption (wt % Adsorbed) for the molecule shown: O=S(=O)([O-])c1ccc2ccccc2c1.[Na+] [NS, Sodium 2-Naphthalene sulfonate]
70

Specify reported Adsorption (wt % Adsorbed) for the molecule shown: O=C([O-])c1cccc2ccccc12.[Na+] [NA, 1-Naphthoic acid sodium salt]
61

Now take the following molecule into account.
Specify reported Adsorption (wt % Adsorbed) for the molecule shown: OCCOc1ccccc1 [EGPE, Ethylene glycol phenyl ether]
12

* * *

ASSAY_NOTES: Second sacrificial agent testing protocol: paste air measurements with DDBS (0.0125 wt %) and rating
TEST_CONDITIONS: Portland cement paste (PCA); […]
Let's look at some compounds and their measured PCA + 0.1% SA (level of air entrainment by the candidate sacrificial agent).
Enter a number only.

Study these solved cases before continuing.
Specify reported PCA + 0.1% SA (level of air entrainment by the candidate sacrificial agent) for the compound shown: O=C(O)c1ccc2ccccc2c1 [2-Naphthoic acid]
1.3

Specify reported PCA + 0.1% SA (level of air entrainment by the candidate sacrificial agent) for the compound shown: CC1=CCC2CC1C2(C)C (stereo not drawn) [Alpha-Pinene]
0.4

Specify reported PCA + 0.1% SA (level of air entrainment by the candidate sacrificial agent) for the compound shown: OCCOCCOCCO [tri-Ethylene Glycol]
0.9

Specify reported PCA + 0.1% SA (level of air entrainment by the candidate sacrificial agent) for the compound shown: CC(O)C(C)O (stereo not shown) [2,3-Butanediol]
1.2

Specify reported PCA + 0.1% SA (level of air entrainment by the candidate sacrificial agent) for the compound shown: CC(O)COC(C)COC(C)CO (stereo not shown) [tri-Propylene glycol]
1.6

Specify reported PCA + 0.1% SA (level of air entrainment by the candidate sacrificial agent) for the compound shown: CN1CCCC1=O [1-Methyl-2-Pyrrolidinone]
1.9

New cases:
Specify reported PCA + 0.1% SA (level of air entrainment by the candidate sacrificial agent) for the compound shown: O=C1OCCO1 [Ethylene carbonate]
0.0

Specify reported PCA + 0.1% SA (level of air entrainment by the candidate sacrificial agent) for the compound shown: CC1COC(=O)O1 (stereo not shown) [Propylene carbonate]
0.4

Specify reported PCA + 0.1% SA (level of air entrainment by the candidate sacrificial agent) for the compound shown: CCOC(C)=O [Ethyl acetate]
0.8

Specify reported PCA + 0.1% SA (level of air entrainment by the candidate sacrificial agent) for the compound shown: Cl.NCC(N)C(=O)O (stereo not shown)
0.3

Specify reported PCA + 0.1% SA (level of air entrainment by the candidate sacrificial agent) for the compound shown: OCCc1ccccc1 [Phenyl ethyl alcohol]
0.7

* * *

ASSAY_NOTES: Paste air entrainment, Maximum air protocol
TEST_CONDITIONS: over the fly ash:PCA pastes of Table 9; Air 30 (0.0125 wt %)/ND/X=1/4/4, X = the labelled SA
READOUT: Average of air entrained at 66 min (%)
Please reply with the bare figure in % and do not write the unit itself.

Specify reported Average of air entrained at 66 min for the compound shown: OCCOc1ccccc1 [EGPE, Ethylene glycol phenyl ether]
17

Specify reported Average of air entrained at 66 min for the compound shown: COCCO [EGME, Ethylene glycol methyl ether]
15

Specify reported Average of air entrained at 66 min for the compound shown: CC(O)C(O)c1ccccc1 (stereo not drawn) [1-Phe 2-Pro, 1-Phenyl 2-propylene glycol]
15

Specify reported Average of air entrained at 66 min for the compound shown: OCC(O)CO [Glycerol]
14

Specify reported Average of air entrained at 66 min for the compound shown: COC(C)COC(C)CO (stereo not drawn) [Di-PGME, Di-propylene glycol methyl ether]
18

Specify reported Average of air entrained at 66 min for the compound shown: CCCCOCCOCCO [Di-EGBE, Di-ethylene glycol butyl ether]
19

* * *

Let's look at some compounds and their measured Adsorption (wt % Adsorbed).
ASSAY_NOTES: Adsorption/precipitation of SA or AEA in 10 wt % aqueous fly ash or cement slurries at pH 12.5
Format: physicochemical
TEST_CONDITIONS: 10 wt % fly ash M3 (LOI 11.33%) slurry, initial SA 3 mM, Air 30/Air 40 0.105 wt %
Please reply with the bare figure in wt % and do not write the unit itself.

Specify reported Adsorption (wt % Adsorbed) for the compound shown: O=S(=O)([O-])c1ccc2ccccc2c1.[Na+] [NS, Sodium 2-Naphthalene sulfonate]
10

Specify reported Adsorption (wt % Adsorbed) for the compound shown: O=C([O-])c1cccc2ccccc12.[Na+] [NA, 1-Naphthoic acid sodium salt]
12

Specify reported Adsorption (wt % Adsorbed) for the compound shown: NCc1ccccc1
23

New cases:
Specify reported Adsorption (wt % Adsorbed) for the compound shown: OCCOc1ccccc1
14

* * *

ASSAY_NOTES: Adsorption/precipitation of SA or AEA in 10 wt % aqueous fly ash or cement slurries at pH 12.5
Format: physicochemical
TEST_CONDITIONS: 10 wt % fly ash B1 (LOI 4.36%) slurry, initial SA 3 mM, Air 30/Air 40 0.105 wt %
Let's look at some compounds and their measured Adsorption (wt % Adsorbed).
Please reply with the bare figure in wt % and do not write the unit itself.

Study these solved cases before continuing.
Specify reported Adsorption (wt % Adsorbed) for the compound shown: O=C([O-])c1cccc2ccccc12.[Na+] [NA, 1-Naphthoic acid sodium salt]
9

Specify reported Adsorption (wt % Adsorbed) for the compound shown: NCc1ccccc1 [BA, Benzylamine]
25

Specify reported Adsorption (wt % Adsorbed) for the compound shown: OCCOc1ccccc1 [EGPE, Ethylene glycol phenyl ether]
12

Now take the following compound into account.
Specify reported Adsorption (wt % Adsorbed) for the compound shown: O=S(=O)([O-])c1ccc2ccccc2c1.[Na+] [NS, Sodium 2-Naphthalene sulfonate]
8

* * *

ASSAY_NOTES: Precipitation in slurry extract or leachate
Format: physicochemical
TEST_CONDITIONS: solution extracted from 10 wt % fly ash M1 (LOI […]) slurry, pH 12.5; entries in parentheses
READOUT: Precipitation (wt % precipitated)
Answer with the figure and its unit, nothing else.

Study these solved cases before continuing.
Specify reported Precipitation (wt % precipitated) for the compound shown: O=C([O-])c1cccc2ccccc12.[Na+] [NA, 1-Naphthoic acid sodium salt]
80 wt %

Specify reported Precipitation (wt % precipitated) for the compound shown: OCCOc1ccccc1 [EGPE, Ethylene glycol phenyl ether]
1 wt %

Specify reported Precipitation (wt % precipitated) for the compound shown: O=S(=O)([O-])c1ccc2ccccc2c1.[Na+] [NS, Sodium 2-Naphthalene sulfonate]
0 wt %

Now take the following compound into account.
Specify reported Precipitation (wt % precipitated) for the compound shown: NCc1ccccc1 [BA, Benzylamine]
11 wt %

Where do the numbers come from? From patent US7892350B2.
